conditions: in cyclohexane, 305.65 K
experimental endpoint: solubility (mole fraction)
I'd appreciate a reply containing only the number, no unit.

q: Given CC1=NN(c2ccc(C)cc2)C(=O)C1 , state its recorded solubility (mole fraction).
a: 0.00142

----------
settings: in cyclohexane, 308.15 K
experimental endpoint: solubility (mole fraction)
A bare number is all that is needed in reply.

q: Find the recorded solubility (mole fraction) belonging to CC1=NN(c2ccc(C)cc2)C(=O)C1 and report it.
a: 0.00161

----------
conditions: in cyclohexane, 293.15 K
experimental endpoint: solubility (mole fraction)
Number only, no unit.

q: Item CC1=NN(c2ccc(C)cc2)C(=O)C1 has what recorded solubility (mole fraction)?
a: 0.000802

----------
details: in isopropanol, 295.65 K
experimental endpoint: solubility (mole fraction)

q: Record request: solubility (mole fraction) value, item CC1=NN(c2ccc(C)cc2)C(=O)C1
a: 0.0218

----------
conditions: in isopropanol, 313.15 K
experimental endpoint: solubility (mole fraction)
Reply: number alone, nothing else.

q: Reported solubility (mole fraction) for CC1=NN(c2ccc(C)cc2)C(=O)C1 : what is it?
a: 0.0387

----------
details: in ethanol, 305.65 K
experimental endpoint: solubility (mole fraction)
// keep it numeric: no unit symbol after the value

q: Which solubility (mole fraction) reading was recorded for the molecule CC1=NN(c2ccc(C)cc2)C(=O)C1 ?
a: 0.0372

----------
settings: in n-propanol, 300.65 K
experimental endpoint: solubility (mole fraction)

q: Quick one: solubility (mole fraction) of CC1=NN(c2ccc(C)cc2)C(=O)C1 ?
a: 0.0384

----------
conditions: in ethyl acetate, 298.15 K
experimental endpoint: solubility (mole fraction)
Form: value (number only, do not type unit).

q: Request the reported solubility (mole fraction) associated with CC1=NN(c2ccc(C)cc2)C(=O)C1
a: 0.0349

----------
details: in ethyl acetate, 310.65 K
experimental endpoint: solubility (mole fraction)
Just the number.

q: What does the data say about its solubility (mole fraction)? Entry: CC1=NN(c2ccc(C)cc2)C(=O)C1
a: 0.052

----------
conditions: in acetonitrile, 283.15 K
experimental endpoint: solubility (mole fraction)
No unit in the answer, please; the number alone is enough.

q: Can you share its solubility (mole fraction)? I mean this compound: CC1=NN(c2ccc(C)cc2)C(=O)C1
a: 0.00668

----------
conditions: in isopentanol, 278.15 K
experimental endpoint: solubility (mole fraction)

q: Any idea what solubility (mole fraction) was measured for CC1=NN(c2ccc(C)cc2)C(=O)C1 ?
a: 0.0303

----------
settings: in methanol, 288.15 K
experimental endpoint: solubility (mole fraction)
// return a plain number; no unit text

q: Can you share its solubility (mole fraction)? I mean this molecule: CC1=NN(c2ccc(C)cc2)C(=O)C1
a: 0.0221

----------
conditions: in n-propanol, 298.15 K
experimental endpoint: solubility (mole fraction)

q: Any idea what its solubility (mole fraction) is? The molecule is CC1=NN(c2ccc(C)cc2)C(=O)C1
a: 0.0353

----------
conditions: in methanol, 278.15 K
experimental endpoint: solubility (mole fraction)

q: Returns the measured solubility (mole fraction) for the input molecule. Input: CC1=NN(c2ccc(C)cc2)C(=O)C1
a: 0.0152

----------
details: in n-butanol, 280.65 K
experimental endpoint: solubility (mole fraction)
The answer should be a number; do not append a unit.

q: What value of solubility (mole fraction) has been reported for the following compound? CC1=NN(c2ccc(C)cc2)C(=O)C1
a: 0.0206

----------
conditions: in ethanol, 293.15 K
experimental endpoint: solubility (mole fraction)
Number only, no unit.

q: What solubility (mole fraction) value was documented for this compound, CC1=NN(c2ccc(C)cc2)C(=O)C1 ?
a: 0.0248

----------
conditions: in isopropanol, 303.15 K
experimental endpoint: solubility (mole fraction)
Write the value as a bare number.

q: # input compound: CC1=NN(c2ccc(C)cc2)C(=O)C1 ; wanted: its solubility (mole fraction)
a: 0.0281

----------
conditions: in isopentanol, 305.65 K
experimental endpoint: solubility (mole fraction)
Field format: numeric only.

q: Endpoint output: solubility (mole fraction) of CC1=NN(c2ccc(C)cc2)C(=O)C1 . Value?
a: 0.0835

----------
details: in isopentanol, 280.65 K
experimental endpoint: solubility (mole fraction)

q: Requested field: solubility (mole fraction). Item: CC1=NN(c2ccc(C)cc2)C(=O)C1
a: 0.0335

----------
conditions: in ethyl acetate, 278.15 K
experimental endpoint: solubility (mole fraction)
The answer should be a number; do not append a unit.

q: What does the record list as solubility (mole fraction) for CC1=NN(c2ccc(C)cc2)C(=O)C1 ?
a: 0.0171

----------
conditions: in n-propanol, 313.15 K
experimental endpoint: solubility (mole fraction)
Please reply with the number alone, leaving off any unit.

q: I have this compound here, CC1=NN(c2ccc(C)cc2)C(=O)C1 , and I need its recorded solubility (mole fraction).
a: 0.0561

----------
conditions: in cyclohexane, 303.15 K
experimental endpoint: solubility (mole fraction)
Number, no unit, nothing else.

q: // returns reported solubility (mole fraction) for input CC1=NN(c2ccc(C)cc2)C(=O)C1
a: 0.00128

----------
details: in n-butanol, 283.15 K
experimental endpoint: solubility (mole fraction)
# answer = number (no unit)

q: // solubility (mole fraction) lookup, key: CC1=NN(c2ccc(C)cc2)C(=O)C1
a: 0.0226

----------
details: in ethanol, 280.65 K
experimental endpoint: solubility (mole fraction)
Simply state the number, no unit and no words.

q: Which solubility (mole fraction) is listed for CC1=NN(c2ccc(C)cc2)C(=O)C1 ?
a: 0.0161

----------
details: in isopentanol, 288.15 K
experimental endpoint: solubility (mole fraction)
Form rule: numeric answer, no unit written next to it.

q: # solubility (mole fraction) lookup, item CC1=NN(c2ccc(C)cc2)C(=O)C1
a: 0.0449

----------
conditions: in isopropanol, 308.15 K
experimental endpoint: solubility (mole fraction)

q: Would you mind telling me what solubility (mole fraction) value was observed for CC1=NN(c2ccc(C)cc2)C(=O)C1 ?
a: 0.033

----------
settings: in cyclohexane, 313.15 K
experimental endpoint: solubility (mole fraction)
Answer using only a numeral; do not append any unit.

q: // query solubility (mole fraction) value for entry CC1=NN(c2ccc(C)cc2)C(=O)C1
a: 0.002

----------
conditions: in acetonitrile, 285.65 K
experimental endpoint: solubility (mole fraction)
I'd appreciate a reply containing only the number, no unit.

q: Look up solubility (mole fraction) for this compound: CC1=NN(c2ccc(C)cc2)C(=O)C1
a: 0.00746

----------
conditions: in toluene, 285.65 K
experimental endpoint: solubility (mole fraction)
Give the value as a plain number.

q: For CC1=NN(c2ccc(C)cc2)C(=O)C1 , what is its reported solubility (mole fraction)?
a: 0.0133

----------
conditions: in isopropanol, 298.15 K
experimental endpoint: solubility (mole fraction)
Keep the answer to the number alone.

q: Entry CC1=NN(c2ccc(C)cc2)C(=O)C1 has what solubility (mole fraction)?
a: 0.0238

----------
details: in n-butanol, 303.15 K
experimental endpoint: solubility (mole fraction)
No unit in the answer, only the number.

q: Query (compound): CC1=NN(c2ccc(C)cc2)C(=O)C1 ; field requested: solubility (mole fraction)
a: 0.0444

----------
details: in methanol, 300.65 K
experimental endpoint: solubility (mole fraction)
Reply briefly: the number, and no unit.

q: GET /values?readout=solubility (mole fraction)&item= CC1=NN(c2ccc(C)cc2)C(=O)C1
a: 0.034

----------
conditions: in acetonitrile, 308.15 K
experimental endpoint: solubility (mole fraction)

q: Item under review: CC1=NN(c2ccc(C)cc2)C(=O)C1 . Reported solubility (mole fraction)?
a: 0.0192

----------
settings: in isopentanol, 295.65 K
experimental endpoint: solubility (mole fraction)
Give only the figure.

q: What does the record list as solubility (mole fraction) for CC1=NN(c2ccc(C)cc2)C(=O)C1 ?
a: 0.0593

----------
conditions: in toluene, 293.15 K
experimental endpoint: solubility (mole fraction)

q: Please give the measured solubility (mole fraction) for this molecule: CC1=NN(c2ccc(C)cc2)C(=O)C1
a: 0.0176

----------
conditions: in acetonitrile, 293.15 K
experimental endpoint: solubility (mole fraction)

q: Query (molecule): CC1=NN(c2ccc(C)cc2)C(=O)C1 ; field requested: solubility (mole fraction)
a: 0.0104

----------
conditions: in 1,4-dioxane, 308.15 K
experimental endpoint: solubility (mole fraction)
Reply briefly: the number, and no unit.

q: I would be grateful if you could share the reported solubility (mole fraction) for CC1=NN(c2ccc(C)cc2)C(=O)C1 .
a: 0.0737

----------
conditions: in isopropanol, 293.15 K
experimental endpoint: solubility (mole fraction)
Provide a numeric answer; units are not to be included.

q: Need solubility (mole fraction), item CC1=NN(c2ccc(C)cc2)C(=O)C1
a: 0.02

----------
details: in isopentanol, 283.15 K
experimental endpoint: solubility (mole fraction)
Write the number on its own, no unit after it.

q: Any idea what solubility (mole fraction) was measured for CC1=NN(c2ccc(C)cc2)C(=O)C1 ?
a: 0.037

----------
conditions: in n-propanol, 308.15 K
experimental endpoint: solubility (mole fraction)
Reply with just the number.

q: Recorded solubility (mole fraction) of CC1=NN(c2ccc(C)cc2)C(=O)C1 , please.
a: 0.0483
